The values you see were collected from patent US20250333501A1.

# MEASUREMENT_TARGET: T1, CLDN6 endogenously expressed by human cancer cell lines (ARK2, OVCA429) (human, UniProt P56747 1-220)
# T1 construct: Untagged endogenous protein; also called Endogenous CLDN6+
# T1 sequence: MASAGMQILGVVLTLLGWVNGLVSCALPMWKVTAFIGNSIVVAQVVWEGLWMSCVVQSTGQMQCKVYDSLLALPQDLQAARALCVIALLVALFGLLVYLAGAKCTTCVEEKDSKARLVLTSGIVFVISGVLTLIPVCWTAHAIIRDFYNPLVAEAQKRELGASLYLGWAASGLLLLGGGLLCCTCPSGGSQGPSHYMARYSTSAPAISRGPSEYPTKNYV
# PROCEDURE_SUMMARY: FACS, 1.5 µg Ab, ARK2 cells
The binders listed here are annotated with their FACS fluorescence.

BINDER | FACS fluorescence
AB3-5 (antibody, V domains shown, also called Humanized AB 3-5) VH: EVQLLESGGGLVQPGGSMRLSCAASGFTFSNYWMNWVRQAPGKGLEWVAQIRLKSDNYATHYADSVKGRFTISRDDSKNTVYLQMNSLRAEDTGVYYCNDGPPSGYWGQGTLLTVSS VL: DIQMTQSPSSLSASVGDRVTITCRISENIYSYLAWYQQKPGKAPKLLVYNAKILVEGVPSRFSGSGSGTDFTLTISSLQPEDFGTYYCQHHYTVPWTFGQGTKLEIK | 2910
AB3-2 (antibody, V domains shown, also called Humanized AB 3-2) VH: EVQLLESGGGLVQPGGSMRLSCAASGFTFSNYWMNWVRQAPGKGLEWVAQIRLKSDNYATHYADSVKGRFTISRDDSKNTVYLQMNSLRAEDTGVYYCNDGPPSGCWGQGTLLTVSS VL: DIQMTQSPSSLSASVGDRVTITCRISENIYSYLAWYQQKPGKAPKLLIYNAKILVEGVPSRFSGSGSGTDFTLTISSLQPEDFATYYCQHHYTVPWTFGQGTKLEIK | 33600
AB4-9 (antibody, V domains shown, Humanized; also called Humanized AB 4-9) VH: QVQLVQSGAEVKKPGASVKMSCKASGYTFTSYTMHWIRQAPGQGLEWIGYINPSSTYTHYIKKFKDRATLTADTSTSTAYMELSSLRSEDTAVYYCSRGELGGFAYWGQGTLVTVSS VL: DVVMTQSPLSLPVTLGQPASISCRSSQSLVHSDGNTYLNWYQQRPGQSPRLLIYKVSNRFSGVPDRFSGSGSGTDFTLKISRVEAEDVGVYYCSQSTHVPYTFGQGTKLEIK | 7790
AB4-12 (antibody, V domains shown, Humanized; also called Humanized AB 4-12) VH: QVQLVQSGAEVKKPGASVKMSCKASGYTFTSYTMHWIRQAPGQGQEWIGYINPSSTYTHYIKKFKDRATLTADKSTSTAYMELSSLRSEDTAVYYCSRGELGGFAYWGQGTLVTVSS VL: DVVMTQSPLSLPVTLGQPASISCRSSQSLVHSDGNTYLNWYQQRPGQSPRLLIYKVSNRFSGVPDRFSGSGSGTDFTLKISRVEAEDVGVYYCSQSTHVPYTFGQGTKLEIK | 24200
AB18-6 (antibody, V domains shown, also called Humanized AB 18-6) VH: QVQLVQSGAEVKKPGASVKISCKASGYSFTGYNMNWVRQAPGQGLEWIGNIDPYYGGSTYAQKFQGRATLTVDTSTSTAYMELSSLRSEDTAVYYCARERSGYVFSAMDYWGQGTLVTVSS VL: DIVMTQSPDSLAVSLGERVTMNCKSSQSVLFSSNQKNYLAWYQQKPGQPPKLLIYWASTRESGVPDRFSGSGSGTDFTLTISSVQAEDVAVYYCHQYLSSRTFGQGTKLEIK | 1940
